System: Bacillus subtilis
Test: cleaved RNA product abundance (RNA/gDNA barcode ratio) relative to median wild-type variant (ratio to wild type); higher = more accumulation of the downstream cleavage product
Conditions: experiment (reporter, strain, medium): exp 4a: truncated aprE reporter, strain BJT201 with 2% xylose (RNase J1 expressed); cleavage site: cggR-gapA (positions -7 to +36 mutated)
Would you mind telling me the reported cleaved RNA product abundance of each entry?
One number for each entry.

// known answers, use as guide
>  <seq-text>
ACAGACGAAGGAGCCGCAAAGAAGTTATTAAGCGATGAATAATCCCTCAATATAGATATCTCTCACTTATTTAAA

>  <cleaved RNA product abundance>
0.0736

$$$$
>  <seq-text>
ACAGACGAAGGAGCCGCAAAGAAGTTATTAAGTGATGAATAGTCCCTCAATATAAATATCTCTCACTTATTTAAA

>  <cleaved RNA product abundance>
0.14

$$$$
>  <seq-text>
ACAGACGAAGGAGCCGCAAAGAATTTATTAAGGGATGAATAAGCCCTCAATATAAATATCTCTCACTTATTTAAA

>  <cleaved RNA product abundance>
0.573

$$$$
>  <seq-text>
ACAGACGAAGGAGCCGCAAAGAAGTTATTAAGGGCTGAATATTCCCTCAATATAAATATCTCTCACTTATTTAAA

>  <cleaved RNA product abundance>
0.16

$$$$
>  <seq-text>
ACAGACGAAGGAGCCGCAAAGAAGTAATTAAGTGATGAATAATCCCTCAATATAAATATCTCTCACTTATTTAAA

>  <cleaved RNA product abundance>
0.0789

$$$$
>  <seq-text>
ACAGACGAAGGAGCCGCAATTAAGTTATTAAGGGATGAATAATCCCTCAATATAAATATCTCTCACTTATTTAAA

>  <cleaved RNA product abundance>
0.863

$$$$

Attention now shifts to the item below.
Give a short answer stating reported cleaved RNA product abundance for `ACAGACGAAGGAGCCGCAAAGTAGTTATTAAGGGAGGAATAATCCCTCAATATAAATATCTCTCACTTATTTAAA` .
0.557

* * *

System: Bacillus subtilis
Experiment: cleaved RNA product abundance (RNA/gDNA barcode ratio) relative to median wild-type variant (ratio to wild type); higher = more accumulation of the downstream cleavage product
Settings: experiment (reporter, strain, medium): exp 8a: truncated aprE reporter, strain BJT201 with 2% xylose (RNase J1 expressed); cleavage site: glnRA (positions -5 to +31 mutated)
Would you mind telling me the reported cleaved RNA product abundance of each entry?
One number for each entry.

// known answers, use as guide
>  <seq-text>
CGACATGTCCCGCTTCTTTCATTAAACCGTTAGCAACTGTTATGCTATATACATTTACCTTTTAAGAGGAGGAAT

>  <target-entity>
Bacillus subtilis

>  <cleaved RNA product abundance>
0.552

$$$$
>  <seq-text>
CGACATGTCCCGCTTCTTTCATTAATACGATAGCAACTGTTTTGCTATATACATTTACCTTTTAAGAGGAGGAAT

>  <target-entity>
Bacillus subtilis

>  <cleaved RNA product abundance>
0.935

$$$$
>  <seq-text>
CGACATGTCCCGCTTCTTTCATTAATCCGTTAGCAACCGTTATGCTATATACATTTACCTTTTAAGAGGAGGAAT

>  <target-entity>
Bacillus subtilis

>  <cleaved RNA product abundance>
0.316

$$$$
>  <seq-text>
CGACATGTCCCGCTTCTTTCATTAATCCGTTAGCAACTGTTTTGTTATATACATTGACCTTTTAAGAGGAGGAAT

>  <target-entity>
Bacillus subtilis

>  <cleaved RNA product abundance>
2.01

$$$$
>  <seq-text>
CGACATGTCCCGCTTCTTTCATTAATCCGTTAGCAACTGTATTGCTATATACATGTACCTTTTAAGAGGAGGAAT

>  <target-entity>
Bacillus subtilis

>  <cleaved RNA product abundance>
0.783

$$$$

Provide the reported cleaved RNA product abundance of each entry below, same order.
1. CGACATGTCCCGCTTCTTTCATTACTCCGTTAGCAACTGTATTGCTATATACATTTACCTTTTAAGAGGAGGAAT
2. CGACATGTCCCGCTTCTTTCATTATTCCGTTAGCAACTGTTTTGATATATACATTTACCTTTTAAGAGGAGGAAT

1: 0.89; 2: 0.502
